Assay: A CellTox Green Cytotoxicity Assay to monitor cytotoxicity in HepG2 cells - 8 hour (AID 1224890); note: nearly all actives have a fitted effect of over 45% in size
Settings: CellTox Green fluorescence; series mostly up to 76.8 µM
Inconclusive results are not listed. Calls of active or inactive are those of the source. Calls come from the whole dose curve; as a rule, active = well fitted activation curve with a large enough effect in the repeat runs; inconclusive = weak or mixed curves; inactive = flat fitted curve, though single readings scatter.
Returns: one label drawn from active, inactive

Some entries whose results are on file:
CC(=O)Nc1ccc(C)cc1C = inactive
Clc1cc(Cl)nc(Cl)n1 = inactive
C=C(C)[C@@H]1CCC2=CCC[C@@H](C)[C@]2(C)C1 = inactive
Cc1ccc2c(Br)cc(Br)c(O)c2n1 = inactive
CC(C)C=O = inactive

# input Assay result, entry `N#CCc1ccc(Cl)cc1Cl` — outcome?
# output inactive

---

Assay: qHTS RealTime-Glo MT Cell Viability Assay in HEK293 cells - 32 hour (AID 1224868); note: nearly all actives have a fitted effect of over 50% in size
Details: RealTime-Glo luminescence; series mostly up to 76.8 µM
Records with an inconclusive call do not appear. Activity calls are given as the source filed them. Calls come from the whole dose curve; as a rule, active = well fitted cell-killing curve with a large enough effect in the repeat runs; inconclusive = weak or mixed curves, or effect the other way; inactive = flat fitted curve, though single readings scatter.
Returns: one label drawn from active, inactive

Some entries whose results are on file:
CCOC(C)=O = inactive
O=C(O)C[C@H](NC(=O)OCc1ccccc1)C(=O)O = inactive
CC(C)=CC(=O)C=C(C)C = inactive
CC(C)C=O = inactive
CCOc1ccc(Cc2nccc3cc(OCC)c(OCC)cc23)cc1OCC = active

# input Assay result, entry `CC(C)(C)C(=O)C(=O)O` — outcome?
# output inactive

# input Assay result, entry `O=C(CCc1ccc(O)cc1)c1c(O)cc(O)cc1O` — outcome?
# output active

# input Assay result, entry `COc1cc(C(=O)NCCCCCC(=O)O)cc(OC)c1OC` — outcome?
# output inactive

---

Biological target: Nuclear receptor subfamily 1 group I member 3 (Homo sapiens) (UniProt Q14994)
Sequence (Q14994 whole entry, looked up): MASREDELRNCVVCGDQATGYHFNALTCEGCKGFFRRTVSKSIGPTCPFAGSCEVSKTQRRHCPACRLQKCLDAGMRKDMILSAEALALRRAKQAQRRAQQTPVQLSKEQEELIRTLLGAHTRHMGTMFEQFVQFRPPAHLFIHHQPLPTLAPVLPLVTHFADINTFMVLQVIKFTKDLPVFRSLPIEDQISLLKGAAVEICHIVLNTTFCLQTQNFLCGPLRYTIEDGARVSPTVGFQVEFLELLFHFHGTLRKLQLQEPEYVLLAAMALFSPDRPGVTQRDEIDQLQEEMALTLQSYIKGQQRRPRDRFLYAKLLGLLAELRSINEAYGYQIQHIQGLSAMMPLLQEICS
Assay: qHTS assay to identify small molecule agonists of the constitutive androstane receptor (CAR) signaling pathway (AID 1224839); note: nearly all actives have a fitted effect of over 15% in size;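 for activation: HepG2 cells stably carrying human CAR and a CYP2B6 luciferase reporter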
Details: HepG2 hCAR CYP2B6-luciferase, agonist mode, 24 h; series mostly up to 92.4 µM
Records with an inconclusive call do not appear. Active and inactive are the calls of the source. Calls follow the shape of the dose curve; as a rule, active = well fitted activation curve with a large enough effect in the repeat runs; inconclusive = weak or mixed curves; inactive = no such curve, though single readings can be large or run the other way.
Returns: one label drawn from Y for active, N for inactive

Some entries whose results are on file:
O=c1c(O)c(-c2ccc(O)cc2)oc2cc(O)cc(O)c12 = Y
CC(O)c1ccccc1 (stereo not given) = N
Oc1cccc(O)c1O = N
Cc1ccc(OC(=O)c2ccccc2O)cc1 = N
C/C=C/C=C/C=O = N
CN1C(=O)c2ccccc2C1=O = N
c1ccc(C[n+]2cccc3ccccc32)cc1 = N
Cc1cc(C)cc(N)c1 = N

# input Assay result, entry `CCN(CC)CCNC(=O)COc1ccc(OC)cc1` — outcome?
# output N

# input Assay result, entry `CC(=O)Oc1ccc([N+](=O)[O-])cc1CCl` — outcome?
# output N

# input Assay result, entry `Clc1cc(Cl)nc(Cl)n1` — outcome?
# output N

# input Assay result, entry `COc1ccc(OC(=O)N(CC(=O)O)Cc2ccc(OCCc3nc(-c4ccccc4)oc3C)cc2)cc1` — outcome?
# output N

# input Assay result, entry `CC(CO)CO` — outcome?
# output N

# input Assay result, entry `O=C1CCCCCCCCCCOCCCCO1` — outcome?
# output N

# input Assay result, entry `OC1(c2ccccc2)CCNCC1` — outcome?
# output N

# input Assay result, entry `N#CCCN(CCO)CCO` — outcome?
# output N

# input Assay result, entry `C=CC(=O)[O-].C=CC(=O)[O-].[Zn+2]` — outcome?
# output N

# input Assay result, entry `O=C(Cn1ccnc1[N+](=O)[O-])NCCO` — outcome?
# output N

# input Assay result, entry `OCCOCC#CCOCCO` — outcome?
# output N

# input Assay result, entry `Cc1cc(C)c(N)cc1C` — outcome?
# output N

# input Assay result, entry `CC(C)=CC(=O)C=C(C)C` — outcome?
# output N

# input Assay result, entry `C1C[C@@H]2[C@H]3CC[C@H](C3)[C@@H]2C1` — outcome?
# output N

# input Assay result, entry `FC(F)(F)c1ccccc1Cl` — outcome?
# output N

# input Assay result, entry `CN(C)CCC=C1c2ccccc2C=Cc2ccccc21` — outcome?
# output N

---

Experiment: Caspase-3/7 induction in CHO-K1 cells by small molecules, qHTS cell viability counter screen (AID 1346979); note: nearly all actives have a fitted effect of over 35% in size
Settings: CellTiter-Fluor fluorescence, 17 h; series mostly up to 92.4 µM
Results filed as inconclusive are left out. The source made the active and inactive calls. Calls follow the shape of the dose curve; as a rule, active = well fitted cell-killing curve with a large enough effect in the repeat runs; inconclusive = weak or mixed curves, or effect the other way; inactive = no such curve, though single readings can be large or run the other way.
Returns: one label drawn from 1.0 for active, 0.0 for inactive

Some entries whose results are on file:
C(=C\c1ccccc1)/c1ccccc1 = 0.0
C/C=C/C=C/C=O = 0.0
NNC(=O)CP(=O)(c1ccccc1)c1ccccc1 = 0.0

# input Assay result, entry `Cc1[nH]cnc1CN1CCc2c(c3ccccc3n2C)C1=O` — outcome?
# output 0.0

# input Assay result, entry `C[C@H]1c2cccc(O)c2C(O)=C2C(=O)[C@]3(O)C(O)=C(C(N)=O)C(=O)[C@@H](N(C)C)[C@@H]3[C@@H](O)[C@@H]21` — outcome?
# output 0.0

# input Assay result, entry `O=C1c2ccccc2C(=O)C1(O)O` — outcome?
# output 1.0

# input Assay result, entry `CO[C@]1(NC(=O)CSC(F)F)C(=O)N2C(C(=O)O)=C(CSc3nnnn3CCO)CO[C@H]21` — outcome?
# output 0.0

# input Assay result, entry `Cc1cccc(O)c1N` — outcome?
# output 1.0

# input Assay result, entry `O=c1c(O)c(-c2ccc(O)cc2)oc2cc(O)cc(O)c12` — outcome?
# output 1.0

# input Assay result, entry `O=C1CCCCCCCCCCOCCCCO1` — outcome?
# output 0.0

# input Assay result, entry `c1ccc(C[n+]2cccc3ccccc32)cc1` — outcome?
# output 0.0

---

Assay: qHTS assay to identify small molecule antagonists of the estrogen related receptor signaling pathway with the pleiotropic PPARgamma coactivator (PGC) cell viability counter screen (AID 1224822;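 note: viability read after 17.5 h compound exposure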)
Conditions: ERR/PGC reporter cell line viability counter screen; series mostly up to 46.1 µM
Records with an inconclusive call do not appear. Calls of active or inactive are those of the source. The call rests on the fitted dose curve; in most records, active means well fitted cell-killing curve with a large enough effect in the repeat runs; inconclusive means weak or mixed curves, or effect the other way; inactive means flat fitted curve, though single readings scatter.
ASSAY READOUT: outcome

COc1ccccc1N1CCN(CC(O)COc2cccc3ccccc23)CC1 (stereo not drawn) = inactive
C=CCc1ccccc1OCC(O)CNC(C)C (stereo not drawn) = inactive
CC(C)COCC(CN(Cc1ccccc1)c1ccccc1)N1CCCC1 (stereo not drawn) = inactive

---

Biological target: Nuclear receptor ROR-gamma (Homo sapiens)
Assay: qHTS assay to identify small molecule antagonists of the retinoid-related orphan receptor gamma (ROR-gamma) signaling pathway (AID 1159521; note: nearly all actives have a fitted effect of over 50% in size)
Settings: Tet-on RORgamma CHO cells, RORE-luciferase, 16 h; series mostly up to 92.4 µM
Results filed as inconclusive are left out. The source made the active and inactive calls. The call rests on the fitted dose curve; in most records, active means well fitted inhibition curve with a large enough effect in the repeat runs; inconclusive means weak or mixed curves, or effect the other way; inactive means no such curve, though single readings can be large or run the other way.
Returns: one label drawn from active, inactive

Some entries whose results are on file:
COc1ccccc1Oc1c(NS(=O)(=O)c2ccc(C(C)(C)C)cc2)nc(-c2ncccn2)nc1OCCO = active
NC(=O)c1ccncc1 = inactive
C/C=C(/C(=C/C)c1ccc(O)cc1)c1ccc(O)cc1 = inactive
COC(=O)CS = inactive
C=COCC(C)C = inactive
CCOC(=O)c1ccc(OCCN2C[C@H](O)[C@@H](O)[C@H](O)[C@H]2CO)cc1 = inactive
CC/C=C1/OC(=O)c2ccccc21 = inactive
Oc1cccc(Nc2ccccc2)c1 = inactive
CC(=O)c1cc2ccccc2s1 = inactive
C=Cc1ccc(S(=O)(=O)O)cc1 = inactive

# input Assay result, entry `CC(C)(C)CC(=O)OCC(=O)[C@@]1(O)CC[C@H]2[C@@H]3CCC4=CC(=O)C=C[C@]4(C)[C@H]3[C@@H](O)C[C@@]21C` — outcome?
# output active

# input Assay result, entry `CCOc1ccccc1O[C@H](c1ccccc1)[C@H]1CNCCO1` — outcome?
# output inactive

# input Assay result, entry `CC(C)C=O` — outcome?
# output inactive

---

Assay: qHTS assay for identifying genotoxic compounds that show differential cytotoxicity against isogenic chicken DT40 cell lines with known DNA damage response pathways - wild type cell line (AID 743012); note: nearly all actives have a fitted effect of over 60% in size
Settings: DT40 wild type chicken cells viability, CellTiter-Glo, 40 h; series mostly up to 68.4 µM
Description: U.S. Tox21 Program National Center for Advancing Translational Sciences [NCATS] NIH Chemical Genomics Center [NCGC] U.S. Environmental Protection Agency [EPA] National Institutes of Environmental Health Sciences [NIEHS] National Toxicology Program [NTP] U.S. Food and Drug Administration [FDA] Tox21 Assay Overview: DNA repair pathways play a critical role in cellular homeostasis by repairing DNA damage induced by endogenous processes and xenobiotics. […]
Records with an inconclusive call do not appear. Calls of active or inactive are those of the source. Calls follow the shape of the dose curve; as a rule, active = well fitted cell-killing curve with a large enough effect in the repeat runs; inconclusive = weak or mixed curves, or effect the other way; inactive = no such curve, though single readings can be large or run the other way.
Returns: one label drawn from TRUE for active, FALSE for inactive

Some entries whose results are on file:
CCc1ccccc1 = FALSE
CCCCN1CCCC1C(=O)Nc1c(C)cc(C)cc1C (stereo unspecified) = TRUE
Oc1cccc(Nc2ccccc2)c1 = FALSE
CO/N=C(/C(=O)N[C@@H]1C(=O)N2C(C(=O)O)=C(COC(N)=O)CS[C@H]12)c1ccco1 = FALSE
Nc1ccc(N=Nc2ccccc2)c(N)c1 = TRUE

# input Assay result, entry `CCCCCCCC/C=C\CCCCCCCCO` — outcome?
# output FALSE

# input Assay result, entry `CCOC(=O)c1ccc(OCCN2C[C@H](O)[C@@H](O)[C@H](O)[C@H]2CO)cc1` — outcome?
# output FALSE

# input Assay result, entry OC(CCN1CCCC1)(c1ccccc1)C1CCCCC1 (stereo unspecified) — outcome?
# output TRUE

# input Assay result, entry Nc1cccc2c1CN(C1CCC(=O)NC1=O)C2=O (stereo unspecified) — outcome?
# output FALSE

# input Assay result, entry `CC(C)(O)c1ccc(CNC(=O)c2cccnc2Oc2ccc3nonc3c2)cc1` — outcome?
# output TRUE

# input Assay result, entry `CCOC(C)=O` — outcome?
# output FALSE

# input Assay result, entry `C[C@@H]1CC(=O)NN=C1c1ccc(NN=C(C#N)C#N)cc1` — outcome?
# output TRUE

# input Assay result, entry `OCCOCC#CCOCCO` — outcome?
# output FALSE
